test: Human HepG2 cell viability assay in 384 well format; assay type: toxicity, cell-based; set-up: dose 125 nL, time 70.5 hour; concentration not given beside the values; conditions: HepG2 cells, read-out: Inhibition
REPORTED PROPERTY: cytotoxicity at 70.5 h (%)
State just the number; it will be interpreted in %.

Solved entries (count: 5):
{"COMPOUND": "CCOc1cccc(NS(=O)(=O)c2cc(C(=O)O)cs2)c1", "REPORTED PROPERTY": "cytotoxicity at 70.5 h", "UNITS TEXT": "%", "NUMERIC RESULT": -11.8}
{"COMPOUND": "CCn1cc(Br)c(C(=O)NCc2cnn(C)c2)n1", "REPORTED PROPERTY": "cytotoxicity at 70.5 h", "UNITS TEXT": "%", "NUMERIC RESULT": -13.6}
{"COMPOUND": "CCC(Nc1nnnn1-c1ccccc1)C(=O)NCc1cccs1 (configuration not stated)", "REPORTED PROPERTY": "cytotoxicity at 70.5 h", "UNITS TEXT": "%", "NUMERIC RESULT": -8.74}
{"COMPOUND": "CC(C)c1nc(CCN(C)C(=O)C2COc3ccccc3C2)no1 (configuration not stated)", "REPORTED PROPERTY": "cytotoxicity at 70.5 h", "UNITS TEXT": "%", "NUMERIC RESULT": -3.01}
{"COMPOUND": "CCN(Cc1ccco1)C(C)c1nc(C)no1 (configuration not stated)", "REPORTED PROPERTY": "cytotoxicity at 70.5 h", "UNITS TEXT": "%", "NUMERIC RESULT": -2.63}

Entry Cc1noc(C2CCCCN2C(=O)C2CCN(C(C)C)CC2)n1 (configuration not stated) , cytotoxicity at 70.5 h reported as 5.11

Entry CCC(O)CN1CCN(C(=O)Cc2c(C)nc(C)[nH]c2=O)CC1 (configuration not stated) , cytotoxicity at 70.5 h reported as 3.13

Entry COc1coc(CN2CCCC3(CCC(=O)N(CC4CC4)C3)C2)cc1=O (configuration not stated) , cytotoxicity at 70.5 h reported as -8.43

Entry "Cc1nc(C(=O)N2C[C@@H]3COC[C@]3(COCc3cccnc3)C2)cs1" , cytotoxicity at 70.5 h reported as -6.56

Entry "Cc1nc(CN2C(=O)CCC23CCN(Cc2ccccn2)CC3)cs1" , cytotoxicity at 70.5 h reported as -6.85

Entry O=C(CSCC1CC1)N1CCCC(c2nccn2Cc2ccccn2)C1 (configuration not stated) , cytotoxicity at 70.5 h reported as 0.457

Entry Cc1nccn1C1CCCN(C(=O)COCC2CC2)C1 (configuration not stated) , cytotoxicity at 70.5 h reported as -6.29

* * *

test: Human HepG2 cell viability assay in 384 well format; assay type: toxicity, cell-based; parameters: dose 125 nL, time 70.5 hour; concentration not given beside the values; conditions: HepG2 cells, read-out: Inhibition
REPORTED PROPERTY: cytotoxicity at 70.5 h (%)
State just the number; it will be interpreted in %.

Solved entries (count: 2):
{"MOLECULE": "CN(CCc1ccc2c(c1)CCO2)CC1CCS(=O)(=O)C1 (stereo unspecified)", "UNITS TEXT": "%", "NUMERIC RESULT": -9.73}
{"MOLECULE": "Cc1cc(NCCc2nnc(N)s2)nc(-c2cccnc2)n1", "UNITS TEXT": "%", "NUMERIC RESULT": -6}

Entry Cn1nccc1C(=O)N1CCCC1c1ccc(C(=O)N2CCOCC2)s1 (stereo unspecified) , cytotoxicity at 70.5 h reported as 0.297

Entry "COc1cccc(NC(=O)c2cc3c([nH]c2=O)CCCC3=O)c1" , cytotoxicity at 70.5 h reported as -8.19

Entry "O=C(c1sccc1C1CC1)N1CCN(Cc2cscn2)CC1" , cytotoxicity at 70.5 h reported as 5.77

Entry O=C(Nc1ccc(Cl)cn1)C1CCCN(CCc2ccncc2)C1 (stereo unspecified) , cytotoxicity at 70.5 h reported as -1.77
